Attribution: the NTF2 design screens of Basanta et al. (2020)

Experiment: protease stability score; higher = more stable; yeast display proteolysis, trypsin and chymotrypsin;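 note: relative to predicted unfolded state with 0 unfolded-like and 1 meaning tenfold more protease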
Decision: protease stability score >= 2 yields MET, all other cases yield NOT MET.

Primary Sequence: REQEHEAKVAVDEWREDMETGDEHRLRELMDPDVRNIVGDKELHGREAVEFLITQIDHVKHIHVRHLDIQGDYIRFEGEINIHVNGRDRTLDVELYFIKINGRWHIHKLRFD
Class Name: NOT MET

Primary Sequence: DEDERDARKTSHLFLEAFTTGDEDLLRDMVDPNARSIVNGQEEHGWEVIHKTVRELQERYPNVKIDVNDWSYEVQGDKMRTILHFIIHFDGVHVEIHIHVFSRKINGRWVIRRIEYHER
Class Name: MET

Primary Sequence: DEKDNVVEHLARRLIEAELTGDWKFLSELIDPNVRVQVGNKKSHGREEYVHIAEEWWIHEQHIRHVEIQGDKVHLEVETDMVVDGRRVRIEIEIHIHIINGRIKEIRINIV
Class Name: NOT MET

Primary Sequence: SEDHEIIRHYFELLVESFRTGDEETTRRLADPNTRLYFNGKTLHGMEAMLEVLLEIRIEEVELHHVEVINGRVEMDGTVRGIFNGRNQEVKVTFHARKINGVWILNWVEIH
Class Name: MET

Primary Sequence: DEHHKILTELMRDALRYEETGDWDETSKLLDPRTRLDFNGVEVIGREAYEHLLRFLGIKVFRETDMEVQGDKIKLNGRSNFNGRETEHYIYALKVDGRWILRSVEFK
Class Name: NOT MET

Primary Sequence: DEEEEILRTFIRLMHEAWLTGDWKTFEEMLDPHARLHINGKDLHGREQMARRIEELGIKHVEDKDMETQGNKIHLKQIVYVNGRTFELRQFIIKVNGRWVIQHVEVITR
Class Name: NOT MET
